System: phosphorylated mTOR
procedure-details: Phospho imaging assay (immunofluorescence)
Format: cell-based, human
measurement-conditions: 60 min; treated versus untreated cells, fluorescence intensity
# Avg(Avg (Ph MTOR_60m_%C # Spots)) values compiled below
recorded-metric: Avg(Avg (Ph MTOR_60m_%C # Spots)) (%C)

INSERT INTO results (smiles_data, tested_system, recorded_metric, result) VALUES
  ('CN(C)C1CCN(C(=O)c2ccc(NC(=O)Nc3ccc(-c4nc(N5CCOCC5)nc(N5CCOCC5)n4)cc3)cc2)CC1', 'phosphorylated mTOR', 'Avg(Avg (Ph MTOR_60m_%C # Spots))', 77.99),
  ('Cc1c(CN2CCN(C(=O)[C@H](C)O)CC2)sc2c(N3CCOCC3)nc(-c3cnc(N)nc3)nc12', 'phosphorylated mTOR', 'Avg(Avg (Ph MTOR_60m_%C # Spots))', 9.99),
  ('Clc1ccc(C2(c3ccc(-c4cn[nH]c4)cc3)CCNCC2)cc1', 'phosphorylated mTOR', 'Avg(Avg (Ph MTOR_60m_%C # Spots))', 73.59),
  ('Cn1c(=O)n(-c2ccc(C(C)(C)C#N)cc2)c2c3cc(-c4cnc5ccccc5c4)ccc3ncc21', 'phosphorylated mTOR', 'Avg(Avg (Ph MTOR_60m_%C # Spots))', 43.44),
  ('COc1ccc(-c2ccc3c(N4CCOCC4)nc(N4C[C@@H](C)O[C@@H](C)C4)nc3n2)cc1CO', 'phosphorylated mTOR', 'Avg(Avg (Ph MTOR_60m_%C # Spots))', 25.83),
  ('Nc1cc(C(F)(F)F)c(-c2cc(N3CCOCC3)nc(N3CCOCC3)n2)cn1', 'phosphorylated mTOR', 'Avg(Avg (Ph MTOR_60m_%C # Spots))', 60.28),
  ('CCC(=O)N1CCN(c2ccc(-n3c(=O)ccc4cnc5ccc(-c6cnc7ccccc7c6)cc5c43)cc2C(F)(F)F)CC1', 'phosphorylated mTOR', 'Avg(Avg (Ph MTOR_60m_%C # Spots))', 66.6),
  ('CNC(=O)Nc1ccc(-c2nc(N3CC4CCC(C3)O4)c3cnn(C4CCC5(CC4)OCCO5)c3n2)cc1', 'phosphorylated mTOR', 'Avg(Avg (Ph MTOR_60m_%C # Spots))', 17.55),
  ('COc1ncc(-c2ccc3nccc(-c4ccnnc4)c3c2)cc1NS(=O)(=O)c1ccc(F)cc1F', 'phosphorylated mTOR', 'Avg(Avg (Ph MTOR_60m_%C # Spots))', 15.55),
  ('Oc1cccc(-c2nc(N3CCOCC3)c3oc4ncccc4c3n2)c1', 'phosphorylated mTOR', 'Avg(Avg (Ph MTOR_60m_%C # Spots))', 5.59),
  ('COC(=O)Nc1ccc(-c2nc(N3CCOCC3)c3cnn(C4CCN(Cc5cccnc5)CC4)c3n2)cc1', 'phosphorylated mTOR', 'Avg(Avg (Ph MTOR_60m_%C # Spots))', 12.81),
  ('CO[C@H]1C[C@@H]2CC[C@@H](C)[C@@](O)(O2)C(=O)C(=O)N2CCCC[C@H]2C(=O)O[C@H]([C@H](C)C[C@@H]2CC[C@@H](O)[C@H](OC)C2)CC(=O)[C@H](C)/C=C(\C)[C@@H](O)[C@@H](OC)C(=O)[C@H](C)C[C@H](C)/C=C/C=C/C=C/1C', 'phosphorylated mTOR', 'Avg(Avg (Ph MTOR_60m_%C # Spots))', 57.77),
  ('CO[C@H]1C[C@@H]2CC[C@@H](C)[C@@](O)(O2)C(=O)C(=O)N2CCCC[C@H]2C(=O)O[C@H]([C@H](C)C[C@@H]2CC[C@@H](OC(=O)C(C)(CO)CO)[C@H](OC)C2)CC(=O)[C@H](C)/C=C(\C)[C@@H](O)[C@@H](OC)C(=O)[C@H](C)C[C@H](C)/C=C/C=C/C=C/1C', 'phosphorylated mTOR', 'Avg(Avg (Ph MTOR_60m_%C # Spots))', 42.12),
  ('COC[C@H]1OC(=O)c2coc3c2[C@@]1(C)C1=C(C3=O)[C@@H]2CCC(=O)[C@@]2(C)C[C@H]1OC(C)=O', 'phosphorylated mTOR', 'Avg(Avg (Ph MTOR_60m_%C # Spots))', 10.47),
  ('COC(=O)Nc1ccc(-c2nc(N3CCOCC3)c3cnn(C4CCN(C(=O)OC)CC4)c3n2)cc1', 'phosphorylated mTOR', 'Avg(Avg (Ph MTOR_60m_%C # Spots))', 10.49),
  ('COc1ccc(-c2ccc3c(N4CCOC[C@@H]4C)nc(N4CCOC[C@@H]4C)nc3n2)cc1CO', 'phosphorylated mTOR', 'Avg(Avg (Ph MTOR_60m_%C # Spots))', 15.8),
  ('COc1ccc2c(c1OC)N=C(NC(=O)c1cccnc1)N1CCN=C21', 'phosphorylated mTOR', 'Avg(Avg (Ph MTOR_60m_%C # Spots))', 42.17);

* * *

System: phosphorylated AKT
procedure-details: Phospho imaging assay (immunofluorescence)
Format: cell-based, human
measurement-conditions: 60 min; treated versus untreated cells, fluorescence intensity
Description: The effect of each compound on the PI3K/AKT/MTOR pathway was evaluated in two ways: via a kinase profile (FIG. 23) and via phospho imaging assays (i.e., immunofluorescence assays using antibodies specific for the phosphorylated form of mTOR or AKT). […]
recorded-metric: Max(Avg (Ph AKT_60min_Intensity))

INSERT INTO measurements (compound, tested_system, result) VALUES
  ('Cn1c(=O)n(-c2ccc(C(C)(C)C#N)cc2)c2c3cc(-c4cnc5ccccc5c4)ccc3ncc21 [NVPBEZ235]', 'phosphorylated AKT', 88.3),
  ('COc1ccc2c(c1OC)N=C(NC(=O)c1cccnc1)N1CCN=C21 [PIK90]', 'phosphorylated AKT', 86.72),
  ('COC(=O)Nc1ccc(-c2nc(N3CCOCC3)c3cnn(C4CCN(C(=O)OC)CC4)c3n2)cc1 [WYE - 354]', 'phosphorylated AKT', 89.35),
  ('Clc1ccc(C2(c3ccc(-c4cn[nH]c4)cc3)CCNCC2)cc1 [AT7867]', 'phosphorylated AKT', 122.15),
  ('COC(=O)Nc1ccc(-c2nc(N3CCOCC3)c3cnn(C4CCN(Cc5cccnc5)CC4)c3n2)cc1 [WYE-687]', 'phosphorylated AKT', 86.65),
  ('CCC(=O)N1CCN(c2ccc(-n3c(=O)ccc4cnc5ccc(-c6cnc7ccccc7c6)cc5c43)cc2C(F)(F)F)CC1 [Torin1]', 'phosphorylated AKT', 89.48);

Where do the numbers come from? From patent US20170002313A1.
